Measured thermal shift delta Tm by item
- Test system: LOC_OS03G50810-cb003
- METHOD: thermal shift delta Tm vs DMSO control; higher = stronger stabilization (binding);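 further: purified Escherichia coli-expressed rice kinase domain construct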
- CONDITIONS USED: 12.5 µM; protein concentration 2 µM
QUANTITY: thermal shift delta Tm (°C)

compound=O=C(Nc1cccc(Nc2ncc(Br)c(NCCc3cnc[nH]3)n2)c1)N1CCCC1 quantity="thermal shift delta Tm" value_observed=5.57
compound=CCc1ccc(/C=C2/SC(=S)NC2=O)cc1 quantity="thermal shift delta Tm" value_observed=0.48
compound=CCc1nc(C(N)=O)c(Nc2ccc(N3CCC(N4CCN(C)CC4)CC3)c(OC)c2)nc1NC1CCOCC1 quantity="thermal shift delta Tm" value_observed=8.56
compound=COc1ccc2c(c1)[C@]1(C[C@H]1c1ccc3c(/C=C/c4ccc(CN5C[C@@H](C)O[C@@H](C)C5)cc4)n[nH]c3c1)C(=O)N2 quantity="thermal shift delta Tm" value_observed=4.68
compound=COc1ccc(Cl)c(Nc2nc3ccccc3nc2NS(=O)(=O)c2cccc(NC(=O)C(C)(C)N)c2)c1 quantity="thermal shift delta Tm" value_observed=1.54
compound="Cc1ccc(C(=O)Nc2ccc(CN3CCN(C)CC3)c(C(F)(F)F)c2)cc1C#Cc1cnc2[nH]ncc2c1 [GZD824 Dimesylate]" quantity="thermal shift delta Tm" value_observed=6.3
compound=CCCCNc1ncc2c(-c3ccc(CN4CCN(C)CC4)cc3)cn([C@H]3CC[C@H](O)CC3)c2n1 quantity="thermal shift delta Tm" value_observed=10.5
compound=COc1cc2ncnc(Nc3cccc(Cl)c3F)c2cc1OC(=O)N1CCN(C)C[C@H]1C quantity="thermal shift delta Tm" value_observed=0.48

---

thermal shift delta Tm values by entry
- Test system: LOC_OS01G14860-cb001
- METHOD: thermal shift delta Tm vs DMSO control; higher = stronger stabilization (binding)
- CONDITIONS USED: 12.5 µM; protein concentration 2 µM
QUANTITY: thermal shift delta Tm (°C)

compound=Cn1c(Nc2ccc(C(F)(F)F)cc2)nc2cc(Oc3ccnc(-c4ncc(C(F)(F)F)[nH]4)c3)ccc21 target_system=LOC_OS01G14860-cb001 quantity="thermal shift delta Tm" value_observed=5.02
compound=CS(=O)(=O)c1ccc(-c2cnc(N)c(C(=O)Nc3ccccc3)n2)cc1 target_system=LOC_OS01G14860-cb001 quantity="thermal shift delta Tm" value_observed=5.11
compound="Cc1ncc(CO)c(CO)c1O [Pyridoxine]" target_system=LOC_OS01G14860-cb001 quantity="thermal shift delta Tm" value_observed=0.24
compound=CNc1nc(-c2ccc3c(N)n[nH]c3c2)cc(N2C[C@@H](C(=O)NC3CCCCC3)CC[C@H]2C)n1 target_system=LOC_OS01G14860-cb001 quantity="thermal shift delta Tm" value_observed=0.55
compound=Cc1nc2c(-c3cnc(N)nc3)nc(N3CCOCC3)nc2n1C(C)C target_system=LOC_OS01G14860-cb001 quantity="thermal shift delta Tm" value_observed=-0.18
compound=CCCNC(=O)c1cn2ncnc(Nc3cc(C(=O)NC4CC4)ccc3C)c2c1C target_system=LOC_OS01G14860-cb001 quantity="thermal shift delta Tm" value_observed=0.01
compound="Cc1[nH]c(/C=C2\\C(=O)Nc3ccccc32)c(C)c1CCC(=O)O [Orantinib (TSU-68, SU6668)]" target_system=LOC_OS01G14860-cb001 quantity="thermal shift delta Tm" value_observed=1.9
compound=C[C@@H](N)c1ccc(C(=O)Nc2ccnc3[nH]ccc23)cc1 target_system=LOC_OS01G14860-cb001 quantity="thermal shift delta Tm" value_observed=1.44
compound="CC(C)n1nc(-c2cc3cc(O)ccc3[nH]2)c2c(N)ncnc21 [Torkinib (PP242)]" target_system=LOC_OS01G14860-cb001 quantity="thermal shift delta Tm" value_observed=0.52
compound=Nc1nc(Nc2ccc(S(N)(=O)=O)cc2)nn1C(=O)c1c(F)cccc1F target_system=LOC_OS01G14860-cb001 quantity="thermal shift delta Tm" value_observed=5.95
compound=C[C@@H](NC(=O)c1ncnc(N)c1Cl)c1ncc(C(=O)Nc2cc(C(F)(F)F)c(Cl)cn2)s1 target_system=LOC_OS01G14860-cb001 quantity="thermal shift delta Tm" value_observed=0.84
compound=Cc1nc(Nc2cnn(C3CCNCC3)c2)nc2c1N(C)C(=O)c1cc3ccccc3cc1N2C target_system=LOC_OS01G14860-cb001 quantity="thermal shift delta Tm" value_observed=-0.18
compound=CC(C)(CCCCCC(O)CCCCCC(C)(C)C(=O)O)C(=O)O target_system=LOC_OS01G14860-cb001 quantity="thermal shift delta Tm" value_observed=-0.23
compound="c1cc(-c2cnn3cc(-c4ccc(OCCN5CCCCC5)cc4)cnc23)ccn1 [Dorsomorphin 2HCl]" target_system=LOC_OS01G14860-cb001 quantity="thermal shift delta Tm" value_observed=2.59
compound=O=C(O)[C@]1(Cc2cccc(Nc3nccs3)n2)CC[C@@H](Oc2cccc(Cl)c2F)CC1 target_system=LOC_OS01G14860-cb001 quantity="thermal shift delta Tm" value_observed=5.16
compound="CCn1c(N)c(C(=O)NC)c(=O)c2ccc(C#CC(C)(O)COC)nc21 (centres undefined)" target_system=LOC_OS01G14860-cb001 quantity="thermal shift delta Tm" value_observed=0.21
compound=CC[C@@H](N)CNc1ccnc(-c2cc(-c3cnn(C)c3)ccc2O)n1 target_system=LOC_OS01G14860-cb001 quantity="thermal shift delta Tm" value_observed=2.58
compound="FC(F)(F)c1ccc(CNc2ccc(Cc3c[nH]c4ncc(Cl)cc34)cn2)cn1 [Pexidartinib (PLX3397)]" target_system=LOC_OS01G14860-cb001 quantity="thermal shift delta Tm" value_observed=1.22
compound="Cc1ccc(Nc2nccc(N(C)c3ccc4c(C)n(C)nc4c3)n2)cc1S(N)(=O)=O [Pazopanib]" target_system=LOC_OS01G14860-cb001 quantity="thermal shift delta Tm" value_observed=0.04

---

molecules and their reported thermal shift delta Tm
- Test system: LOC_OS01G70970-cb002
- METHOD: thermal shift delta Tm vs DMSO control; higher = stronger stabilization (binding)
- CONDITIONS USED: 12.5 µM; protein concentration 2 µM
QUANTITY: thermal shift delta Tm (°C)

smiles_structure=CNC(=O)c1nn(C)c2c1C(C)(C)Cc1cnc(Nc3ccc(N4CCN(C)CC4)cc3)nc1-2 unit_of_measure=°C value_observed=0.87
smiles_structure=Cc1[nH]c(/C=C2\C(=O)Nc3ccc(S(=O)(=O)Cc4c(Cl)cccc4Cl)cc32)c(C)c1C(=O)N1CCC[C@@H]1CN1CCCC1 unit_of_measure=°C value_observed=0.57
smiles_structure=Cn1nccc1Nc1nccc(-c2ccn([C@H](CO)c3ccc(Cl)c(F)c3)c(=O)c2)n1 unit_of_measure=°C value_observed=0.22
smiles_structure=N#CCNC(=O)c1ccc(-c2ccnc(Nc3ccc(N4CCOCC4)cc3)n2)cc1 unit_of_measure=°C value_observed=0.41

---

Measured thermal shift delta Tm accompanies every entry in the list below.
- Tested on: LOC_OS01G14860-cb001
- METHOD: thermal shift delta Tm vs DMSO control; higher = stronger stabilization (binding)
- CONDITIONS USED: 12.5 µM; protein concentration 2 µM
Where a name gives a salt, the structure may show the parent alone.
QUANTITY: thermal shift delta Tm (°C)

compound=CCc1cnn2c(NCc3ccc[n+]([O-])c3)cc(N3CCCC[C@H]3CCO)nc12 value_observed=3.51
compound=N#CC(=C(/N)Sc1ccccc1N)/C(C#N)=C(\N)Sc1ccccc1N value_observed=0.53
compound=CC(C)(C)Cn1c(N)nc2ccc(-c3[nH]c(C(C)(C)C)nc3-c3ccc(F)cc3)nc21 value_observed=-0.02
compound=C[C@]1(O)C[C@@H](c2nc(-c3ccc4ccc(-c5ccccc5)nc4c3)c3c(N)nccn32)C1 value_observed=0.26
compound=CCC(=O)Nc1cccc(Oc2nc(Nc3ccc(N4CCN(C)CC4)cc3OC)ncc2Cl)c1 value_observed=-0.01
compound="Cc1cc(C)c(/C=C2\\C(=O)Nc3ccccc32)[nH]1 [Semaxanib (SU5416)]" value_observed=0.24
compound=O=C1NCCc2[nH]c(-c3ccncc3)cc21 value_observed=5.61
compound="OC1CCC(Oc2cccc3cnc(Nc4ccc5nc[nH]c5c4)nc23)CC1 (configuration not stated)" value_observed=7.5
compound=C[C@@H]1COC(Nc2ccc3ncnc(Nc4ccc(OCc5nccs5)c(Cl)c4)c3c2)=N1 value_observed=1.1
compound=CC(C)(C)c1nc(-c2ccc(NC(=O)Nc3cccc(C(F)(F)F)c3)c3ccccc23)c2c(N)nccn12 value_observed=1.63
compound="O=C(Nc1cnn2ccc(N3CCC[C@@H]3c3cc(F)ccc3F)nc12)N1CC[C@H](O)C1 [Larotrectinib (LOXO-101) sulfate]" value_observed=0.39
compound=CC[C@@H]1C(=O)N(C)c2cnc(Nc3ccc(C(=O)N[C@H]4CC[C@H](N5CCN(CC6CC6)CC5)CC4)cc3OC)nc2N1C(C)C value_observed=0.21
compound=Cc1n[nH]c2ncc(C(=O)N3CCC[C@H]3c3ccc(Cl)cc3)cc12 value_observed=4.68
compound="COc1cc(Nc2ncc(F)c(Nc3ccc4c(n3)N(COP(=O)(O)O)C(=O)C(C)(C)O4)n2)cc(OC)c1OC [Fostamatinib (R788)]" value_observed=4.38
compound=Cn1cc(-c2ccc3c(c2)CCN3C(=O)Cc2cccc(C(F)(F)F)c2)c2c(N)ncnc21 value_observed=0.47
compound="COc1cc(Nc2ncc(F)c(Nc3ccc4c(n3)NC(=O)C(C)(C)O4)n2)cc(OC)c1OC [R406 (free base)]" value_observed=5.16
compound=CC(C)(C)c1cc(NC(=O)Nc2ccc(-c3cn4c(n3)sc3cc(OCCN5CCOCC5)ccc34)cc2)no1 value_observed=0.25
